Entry source: patent US20250236673A1

target: T1, human serum albumin (human, UniProt P02768 25-609); experiment: SPR on HSA (Example 2; method not restated, as Example 1)
T1 construct: Immobilised by amine coupling on a C1 chip; also called HSA
T1 sequence (P02768 25-609 limits assumed): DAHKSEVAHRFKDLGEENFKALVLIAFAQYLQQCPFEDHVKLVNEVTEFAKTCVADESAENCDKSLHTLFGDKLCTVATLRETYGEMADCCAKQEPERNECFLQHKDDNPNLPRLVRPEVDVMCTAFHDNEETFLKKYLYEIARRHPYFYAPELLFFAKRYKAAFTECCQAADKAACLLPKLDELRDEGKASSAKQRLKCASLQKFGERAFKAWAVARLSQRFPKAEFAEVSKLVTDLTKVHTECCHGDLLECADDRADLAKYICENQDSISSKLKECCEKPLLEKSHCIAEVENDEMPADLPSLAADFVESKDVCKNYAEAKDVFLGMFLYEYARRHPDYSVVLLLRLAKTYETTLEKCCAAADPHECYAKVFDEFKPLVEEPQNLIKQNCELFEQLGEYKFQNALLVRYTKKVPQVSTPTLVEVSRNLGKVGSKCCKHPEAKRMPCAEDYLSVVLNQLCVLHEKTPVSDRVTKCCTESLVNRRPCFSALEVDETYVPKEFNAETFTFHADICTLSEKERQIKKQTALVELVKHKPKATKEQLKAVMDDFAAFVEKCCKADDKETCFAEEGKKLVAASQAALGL
In this section we review reported koff values for a set of binders.
State the answer as a number, implicitly in s⁻¹.

Illustrative cases are given below, each with its answer.
binder | koff [s⁻¹]
T039400041 (VHH, Single lysine at 64; also called HIS6-ENLYFQS-5GS-HSA006A06(K43R, K75R, K83R)) VHH: EVQLVESGGGVVQPGGSLRLSCAASGFTFRSFGMSWVRQAPGRGPEWVSSISGSGSDTLYADSVKGRFTISRDNSRNTLYLQMNSLRPEDTALYYCTIGGSLSRSSQGTLVTVSS | 0.00232
T039400039 (VHH, Single lysine at 75; also called HIS6-ENLYFQS-5GS-HSA006A06(K43R, K64R, K83R)) VHH: EVQLVESGGGVVQPGGSLRLSCAASGFTFRSFGMSWVRQAPGRGPEWVSSISGSGSDTLYADSVRGRFTISRDNSKNTLYLQMNSLRPEDTALYYCTIGGSLSRSSQGTLVTVSS | 0.00226
T039400044 (VHH, also called HIS6-ENLYFQS-5GS-HSA006A06(K43R, K64R, K75R, K83R, Q105K)) VHH: EVQLVESGGGVVQPGGSLRLSCAASGFTFRSFGMSWVRQAPGRGPEWVSSISGSGSDTLYADSVRGRFTISRDNSRNTLYLQMNSLRPEDTALYYCTIGGSLSRSSKGTLVTVSS | 0.00229
T039400046 (VHH, Single lysine at the C-terminus; also called HIS6-ENLYFQS-5GS-HSA006A06(K43R, K64R, K75R, K83R)-K) VHH: EVQLVESGGGVVQPGGSLRLSCAASGFTFRSFGMSWVRQAPGRGPEWVSSISGSGSDTLYADSVRGRFTISRDNSRNTLYLQMNSLRPEDTALYYCTIGGSLSRSSQGTLVTVSS | 0.00224
T039400043 (VHH, Single lysine at 43; also called HIS6-ENLYFQS-5GS-HSA006A06(K64R, K75R, K83R)) VHH: EVQLVESGGGVVQPGGSLRLSCAASGFTFRSFGMSWVRQAPGKGPEWVSSISGSGSDTLYADSVRGRFTISRDNSRNTLYLQMNSLRPEDTALYYCTIGGSLSRSSQGTLVTVSS | 0.00226

Request the reported koff associated with T039400045 (VHH, Single lysine at 45; also called HIS6-ENLYFQS-5GS-HSA006A06(K43R, P45K,K64R, K75R, K83R)) VHH: EVQLVESGGGVVQPGGSLRLSCAASGFTFRSFGMSWVRQAPGRGKEWVSSISGSGSDTLYADSVRGRFTISRDNSRNTLYLQMNSLRPEDTALYYCTIGGSLSRSSQGTLVTVSS
0.00263

Follow-up item: T039400040 (VHH, No lysine; also called HIS6-ENLYFQS-5GS-HSA006A06(K43R, K64R, K75R, K83R)) VHH: EVQLVESGGGVVQPGGSLRLSCAASGFTFRSFGMSWVRQAPGRGPEWVSSISGSGSDTLYADSVRGRFTISRDNSRNTLYLQMNSLRPEDTALYYCTIGGSLSRSSQGTLVTVSS
0.00231

Follow-up item: T039400042 (VHH, Single lysine at 73; also called HIS6-ENLYFQS-5GS-HSA006A06(K43R, K64R, N73K, K75R, K83R)) VHH: EVQLVESGGGVVQPGGSLRLSCAASGFTFRSFGMSWVRQAPGRGPEWVSSISGSGSDTLYADSVRGRFTISRDKSRNTLYLQMNSLRPEDTALYYCTIGGSLSRSSQGTLVTVSS
0.0178
